Reference source for all entries: patent US20220289798A1

experimentalTarget: Gp120 (HIV)
measurementProtocol: indirect ELISA; indirect ELISA
recordedEndpoint: EC50 (µg/mL)
# output: bare number, implied unit µg/mL

// worked examples, EC50 included
[[record]]
binder = "M78K 20K (other, chain 1 pos 79: Lys carrying 20,000 MW PEG by NHS-ester amine coupling, written K. It is the only lysine in the chain. At least one PEG per dimer. The exact site and occupancy were not measured.) MSLTHRRFGGSGGSPFSGLSSIAVRSGSYLDAIIIDGVHHGGSGGNLSPTFTFGSGEYISNMTIRSGDYIDNISFETNKGRRFGPYGGSGGSANTLSNVRVIQINGSAGDYLDSLDIYYEQY"
recordedendpoint = "EC50"
reportedmeasurement = 0.0192

[[record]]
binder = "NK 2K (other, 2,000 MW PEG coupled by NHS ester to a primary amine. The intended site is the added N-terminal Lys, pos 2, written K; the N-terminal amine is also possible. At least one PEG per dimer. The exact site and number of PEGs are not determined.) MKSLTHRRFGGSGGSPFSGLSSIAVRSGSYLDAIIIDGVHHGGSGGNLSPTFTFGSGEYISNMTIRSGDYIDNISFETNQGRRFGPYGGSGGSANTLSNVRVIQINGSAGDYLDSLDIYYEQY"
recordedendpoint = "EC50"
reportedmeasurement = 0.00745

[[record]]
binder = "M78K 2K (other, chain 1 pos 79: Lys carrying 2,000 MW PEG by NHS-ester amine coupling, written K. It is the only lysine in the chain. At least one PEG per dimer. The exact site and occupancy were not measured.) MSLTHRRFGGSGGSPFSGLSSIAVRSGSYLDAIIIDGVHHGGSGGNLSPTFTFGSGEYISNMTIRSGDYIDNISFETNKGRRFGPYGGSGGSANTLSNVRVIQINGSAGDYLDSLDIYYEQY"
recordedendpoint = "EC50"
reportedmeasurement = 0.0109

[[record]]
binder = "CK 20K (other, 20,000 MW PEG coupled by NHS ester to a primary amine. The intended site is the added C-terminal Lys, pos 123, written K. At least one PEG per dimer. The exact site and number of PEGs are not determined.) MSLTHRRFGGSGGSPFSGLSSIAVRSGSYLDAIIIDGVHHGGSGGNLSPTFTFGSGEYISNMTIRSGDYIDNISFETNQGRRFGPYGGSGGSANTLSNVRVIQINGSAGDYLDSLDIYYEQYK"
recordedendpoint = "EC50"
reportedmeasurement = 0.0141

[[record]]
binder = "NK 20K (other, 20,000 MW PEG coupled by NHS ester to a primary amine. The intended site is the added N-terminal Lys, pos 2, written K; the N-terminal amine is also possible. At least one PEG per dimer. The exact site and number of PEGs are not determined.) MKSLTHRRFGGSGGSPFSGLSSIAVRSGSYLDAIIIDGVHHGGSGGNLSPTFTFGSGEYISNMTIRSGDYIDNISFETNQGRRFGPYGGSGGSANTLSNVRVIQINGSAGDYLDSLDIYYEQY"
recordedendpoint = "EC50"
reportedmeasurement = 0.0264


Now for a further binder.
For the binder Q 20K (other, 20,000 MW PEG coupled by NHS ester to a primary amine. The candidate sites are Lys pos 7 and Lys pos 100, both written K. At least one PEG per dimer. The exact site and number of PEGs are not determined.) MSLTHRKFGGSGGSPFSGLSSIAVRSGSYLDAIIIDGVHHGGSGGNLSPTFTFGSGEYISNMTIRSGDYIDNISFETNQGRRFGPYGGSGGSANTLSNVKVIQINGSAGDYLDSLDIYYEQY , what EC50 is on record?
0.0163
